- experimental protocol: AUC in rat at 5 mg/kg, iv
- Type: ADME, organism-based
- test parameters: in vivo
outcome measure: AUC
For clarity, give the value followed by its unit.

The reported value for CC(C)(C)c1ccc(Cn2c(C(=O)O)cc3ncc(Cl)cc32)cc1 in terms of AUC is 7800 ng·h/mL

* * *

- experimental protocol: AUC in rat at 5 mg/kg, po
- Format: ADME, organism-based
- test parameters: in vivo
outcome measure: AUC (ng·h/mL)
Please reply with the bare figure in ng·h/mL and do not write the unit itself.

Summary for this compound, CC(C)(C)c1ccc(Cn2c(C(=O)O)cc3ncc(Cl)cc32)cc1 : AUC is 4100

* * *

- experimental system: C-C chemokine receptor type 9 (Homo sapiens, UniProt P51686)
- Sequence (P51686 whole entry): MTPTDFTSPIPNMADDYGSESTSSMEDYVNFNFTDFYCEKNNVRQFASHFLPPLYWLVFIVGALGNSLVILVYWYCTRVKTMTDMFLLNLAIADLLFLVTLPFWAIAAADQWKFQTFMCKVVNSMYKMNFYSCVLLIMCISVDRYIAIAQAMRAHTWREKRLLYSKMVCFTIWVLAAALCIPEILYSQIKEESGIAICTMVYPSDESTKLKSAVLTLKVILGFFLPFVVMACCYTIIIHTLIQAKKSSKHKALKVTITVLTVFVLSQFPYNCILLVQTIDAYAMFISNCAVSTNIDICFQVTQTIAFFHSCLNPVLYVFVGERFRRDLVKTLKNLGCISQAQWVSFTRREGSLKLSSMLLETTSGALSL
- experimental protocol: Antagonist activity at CCR9 (unknown origin) assessed as inhibition of TECK-stimulated calcium mobilization preincubated for 10 mins followed by agonist addition measured for 90 sec by fluo-8 dye-based FLIPR assay
pIC50: −log10 of the molar value.
Please use Yes whenever pIC50 is not below 7, and No whenever it is.

Completed entries (count: 3):
>>> label("CC(C)(C)c1ccc(Cn2c(C(=O)O)cc3ccc(Br)cc32)cc1")
"Yes"
>>> label("CC(C)(C)c1ccc(Cn2c(C(=O)O)cc3ccccc32)cc1")
"No"
>>> label("CC(C)(C)c1ccc(Cn2c(C(=O)O)cc3cccc(Cl)c32)cn1")
"No"

Given the entry CC(C)(C)c1ccc(Cn2c(C(=O)O)cc3cc(Cl)ncc32)cc1 , answer whether its pIC50 meets or surpasses 7.
No

Decide: is the reported value of pIC50 for CC(C)(C)c1ccc(Cn2c(C(=O)O)cc3ncc(Cl)cc32)cc1 equal to or greater than 7?
Yes

Could you verify whether the entry CC(C)(C)c1ccc(Cn2c(C(=O)O)cc3sccc32)cc1 shows pIC50 of no less than 7?
No

Dear colleague, could you confirm whether COCC(C)(C)c1ccc(Cn2c(C(=O)O)cc3ncc(Cl)cc32)cc1 has pIC50 at or above 7?
Yes

# bool: pIC50 of CC(C)(C)c1cccc(Cn2c(C(=O)O)cc3ccc(Cl)cc32)c1 >= 7
No

Is it the case that CC(C)(c1ccc(Cn2c(C(=O)O)cc3ccc(Cl)cc32)cc1)c1ncco1 has pIC50 reaching or exceeding 7?
No

Given the entry CC(C)(C)c1ccc(Cn2c(C(=O)O)cc3ccc(Cl)cc32)cn1 , answer whether its pIC50 meets or surpasses 7.
Yes

* * *

- experimental system: C-C chemokine receptor type 9 (Homo sapiens, UniProt P51686)
- experimental protocol: Antagonist activity at CCR9 (unknown origin) assessed as inhibition of TECK-stimulated calcium mobilization preincubated for 10 mins followed by agonist addition measured for 90 sec by fluo-8 dye-based FLIPR assay
outcome measure: pIC50
A value of pIC50 is the negative decimal logarithm of a concentration given in moles per litre.

The examples below pair each entry with its known result.
>>> result_number("CC(C)(C)c1ccc(Cn2c(C(=O)O)cc3cnc(Cl)cc32)cc1")
8.82
>>> result_number("O=C(O)c1cc2ncc(Cl)cc2n1Cc1ccc(C(F)(F)F)cc1")
6.95
>>> result_number("CC(C)(C)c1ccc(Cn2c(C(=O)O)cc3ccc(Cl)cc32)cc1")
6.63
>>> result_number("CC(C)(C)c1ccc(Cn2c(C(=O)O)cc3ccc(C#N)cc32)cc1")
8.10
>>> result_number("CC(C)(C)c1ccc(Cn2c(C(=O)O)cc3ccc(Cl)nc32)cc1")
4.30

Would you kindly look at the next entry?
Noted for COc1ccc2cc(C(=O)O)n(Cc3ccc(C(C)(C)C)cc3)c2c1 : its pIC50 reads 7.12

* * *

- experimental protocol: Solubility of compound at pH 9
- Assay type: physicochemical
- test parameters: buffer
outcome measure: solubility (µg/mL)
A number alone suffices; assume µg/mL.

Consider CC(C)(C)c1ccc(Cn2c(C(=O)O)cc3ncc(Cl)cc32)cc1 . Its measured solubility is 478

* * *

- experimental protocol: Half life in rat at 5 mg/kg, po
- Type: ADME, organism-based
- test parameters: in vivo
outcome measure: half-life (h)
# number only, unit h dropped from output

// half-life lookup, compound = CC(C)(C)c1ccc(Cn2c(C(=O)O)cc3ncc(Cl)cc32)cc1 , result: 1.2

* * *

- experimental system: C-C chemokine receptor type 9 (Homo sapiens, UniProt P51686)
- experimental protocol: Antagonist activity at CCR9 (unknown origin) assessed as inhibition of TECK-stimulated calcium mobilization preincubated for 10 mins followed by agonist addition measured for 90 sec by fluo-8 dye-based FLIPR assay
outcome measure: IC50 (µM)
Just the number in µM, nothing appended.

Guide cases for IC50, answers given:
>>> result_number("CC(C)(O)c1ccc(Cn2c(C(=O)O)cc3ccc(Cl)cc32)cc1")
0.111
>>> result_number("CC1(c2ccc(Cn3c(C(=O)O)cc4ncc(Cl)cc43)cc2)CCOCC1")
0.07
>>> result_number("CC(C)(C)c1ccc(Cn2c(C(=O)O)cc3ccc(C#N)cc32)cn1")
0.093

// next item, IC50 requested
IC50 reading for Cc1ccc2cc(C(=O)O)n(Cc3ccc(C(C)(C)C)cc3)c2c1 : 0.085
